# TARGET_DESC: T1, Polyhistidine-tagged recombinant human UCH-L1 expressed from E. coli (human, UniProt P09936 1-223, limits assumed)
# T1 construct: also called UCH-L1-His; not shown: polyhistidine tag
# ASSAY_DETAILS: BLI (Octet QKe); His-tagged UCH-L1 on anti-Penta-HIS sensor, antibody in solution
MEASURED_ATTRIBUTE: Kd (nM)

[[record]]
binder = "UCH-L1-7 (antibody, V domains shown, also called mouse anti-UCH-L1 antibody UCH-L1-7) VH: EVQLQQSGPELVKPGASVKISCKTSGYTFTEYTMHWVKQSHGKSLDWIGGINPNNGRTSYNQKFKGKATLTVDKSSSTAYMELRSLTSEDSAVYYCARRLGRGFYFDYWGQGTTLTVSS VL: DIVLTQSPASLAVSLGQRATISCRASESVDSYGNNLMHWYQQKPGQPPKLLIYLSSNLESGIPARFSGRGSRTDFTLTINPVEADDVATYYCQQSNGDPYTFGGGTKLEIK"
number = 0.0187

